# Test target: human M4 receptor (Homo sapiens (Human))
# Protocol notes: Radioligand (tritiated N-methylscopolamine) binding assay, M4
# Assay context: Ki against the M4 receptor; membranes from CHO cells expressing human M4; tritiated N-methylscopolamine 1.5 nM; read-out: Ki
Result type: Ki

Past entries and their recorded results:
1. C[C@@H]1CN(c2cnc(Cl)c(F)c2)C[C@H](C)N1C(=O)NCCC1CCN(Cc2ccccc2)CC1 ... < 10 nM
2. N#Cc1cc(N2CCC(C(=O)NCCC3CCN(Cc4ccccc4)CC3)CC2)ccc1F ... < 10 nM
3. N#Cc1cnc(N2CCN(C(=O)NCCC3CCN(Cc4ccccc4)CC3)[C@@H](CO)C2)nc1 ... 100 to 1000 nM
4. C[C@@H]1CN(c2cncnc2)CCN1C(=O)NCCC1CCN(Cc2ccccc2)CC1 ... 10 to 100 nM
5. N#Cc1ccccc1N1CCC(C(=O)NCCC2CCN(Cc3ccccc3)CC2)CC1 ... 100 to 1000 nM

Would you mind telling me what Ki value was observed for "Cc1c(C(=O)NC[C@@H](O)C2CCN(Cc3ccccc3)CC2)cnc2cc(-c3cccc(C(F)(F)F)c3)nn12" ?
< 10 nM

Would you mind telling me what Ki value was observed for "O=C(NCCC1CCN(Cc2ccccc2)CC1)C1CCN(c2cccc3c2OC(F)(F)O3)CC1" ?
10 to 100 nM

Would you mind telling me what Ki value was observed for "N#Cc1cc(N2CCC(C(=O)NCCC3(O)CCN(Cc4ccccc4)CC3)CC2)ccc1OC(F)(F)F" ?
< 10 nM

====

# Test target: human M3 receptor (Homo sapiens (Human), UniProt P20309)
# Sequence (P20309 whole entry): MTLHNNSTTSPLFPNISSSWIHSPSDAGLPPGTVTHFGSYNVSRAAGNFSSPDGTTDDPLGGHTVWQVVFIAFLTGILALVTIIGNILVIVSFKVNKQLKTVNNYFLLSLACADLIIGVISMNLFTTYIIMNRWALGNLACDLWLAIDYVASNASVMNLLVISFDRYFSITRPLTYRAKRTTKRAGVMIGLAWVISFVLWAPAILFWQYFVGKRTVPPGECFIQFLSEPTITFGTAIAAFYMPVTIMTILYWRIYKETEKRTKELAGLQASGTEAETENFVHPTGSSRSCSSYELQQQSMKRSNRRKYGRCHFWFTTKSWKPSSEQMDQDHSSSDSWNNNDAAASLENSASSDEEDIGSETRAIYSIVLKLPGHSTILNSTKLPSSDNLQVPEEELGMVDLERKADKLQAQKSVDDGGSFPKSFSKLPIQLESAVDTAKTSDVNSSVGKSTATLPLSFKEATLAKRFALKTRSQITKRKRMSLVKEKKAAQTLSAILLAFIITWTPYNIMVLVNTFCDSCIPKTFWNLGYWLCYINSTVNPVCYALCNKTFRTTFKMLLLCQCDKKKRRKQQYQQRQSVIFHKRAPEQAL
# Protocol notes: Radioligand (tritiated N-methylscopolamine) binding assay, M3
# Assay context: CHO cell membranes expressing human M3; 1.5 nM tritiated N-methylscopolamine; 90 min, 37° C.; read-out: Ki against M3 receptor (Table 21, M3)
pKi: −log10 of the molar value.
Result type: pKi

Past entries and their recorded results:
1) C[C@@H]1CN(c2ccc(OC(F)(F)F)c(C#N)c2)CCN1C(=O)NCCC1(O)CCN(Cc2ccccc2)CC1 ... < 6.00
2) O=C(NCCC1CCN(Cc2ccccc2)CC1)C1CCN(c2cc(F)cc(F)c2)CC1 ... < 6.00
3) C[C@@H]1CN(c2ncc(C#N)c(N)n2)C[C@H](C)N1C(=O)NCCC1CCN(Cc2ccccc2)CC1 ... < 6.00
4) O=C(NCCC1(O)CCN(Cc2ccccc2)CC1)C1CCN(c2ccc(OC(F)(F)F)c(F)c2)CC1 ... < 6.00
5) C[C@@H]1CN(c2ncc(C#N)cn2)C[C@H](C)N1C(=O)NCCC1CCN(CC[Si](C)(C)C)CC1 ... 7.00 to 8.00
6) C[C@@H]1CN(c2cc(F)c(C#N)c(F)c2)CCN1C(=O)NCCC1CCN(Cc2ccccc2)CC1 ... < 6.00
7) C[C@@H]1CN(c2ncc(C(F)(F)F)c(N)n2)CCN1C(=O)NCCC1CCN(Cc2ccccc2)CC1 [21-16] ... 7.00 to 8.00

Would you mind telling me what pKi value was observed for C[C@H]1CN(c2ncc(C(F)(F)F)cc2F)CCC1C(=O)NCCC1CCN(Cc2ccccc2)CC1 (some centres unmarked) ?
7.00 to 8.00

====

# Test target: human M4 receptor (Homo sapiens (Human), UniProt P08173)
# Sequence (P08173 whole entry): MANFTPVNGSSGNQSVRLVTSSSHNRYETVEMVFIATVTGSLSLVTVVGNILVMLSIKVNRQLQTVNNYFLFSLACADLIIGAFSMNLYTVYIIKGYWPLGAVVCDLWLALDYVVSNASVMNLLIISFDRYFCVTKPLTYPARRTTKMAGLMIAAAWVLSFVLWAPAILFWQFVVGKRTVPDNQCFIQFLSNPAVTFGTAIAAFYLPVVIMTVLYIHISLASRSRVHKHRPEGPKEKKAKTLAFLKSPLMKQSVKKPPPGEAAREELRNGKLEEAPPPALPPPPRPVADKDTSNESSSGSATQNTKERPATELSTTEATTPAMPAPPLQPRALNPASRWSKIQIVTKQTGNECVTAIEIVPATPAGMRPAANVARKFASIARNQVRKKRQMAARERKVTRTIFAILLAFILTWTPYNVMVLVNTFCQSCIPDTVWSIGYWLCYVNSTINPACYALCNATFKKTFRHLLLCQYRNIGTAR
# Protocol notes: Radioligand (tritiated N-methylscopolamine) binding assay, M4
# Assay context: Ki against the M4 receptor; membranes from CHO cells expressing human M4; tritiated N-methylscopolamine 1.5 nM; read-out: Ki
pKi: −log10 of the molar value.
Result type: pKi

1. CN(C(=O)c1ccc(Cl)c(-c2nc3ccccc3cc2C#N)c1)[C@@H]1CCN(C2CCCCC2)C1 [9-18] ... 6.00 to 7.00
2. O=C(c1ccn2cc(-c3ccc(OC(F)(F)F)cc3)nc2c1)N(C1CC1)C1CCN(Cc2ccccc2)CC1 [9-48] ... 6.00 to 7.00
3. N#Cc1ccc(N2CCC(C(=O)NCCC3CCN(Cc4ccccc4O)CC3)CC2)nc1 [11-25] ... 6.00 to 7.00

Request - read-out pKi | tested on human M4 receptor (Homo sapiens (Human), UniProt P08173) | molecule C[C@@H]1CN(c2ncc(C(F)(F)F)cn2)CCN1C(=O)NCCC1CCN(Cc2ccc(F)cc2)CC1 [6-37]
> 8.00
